# target-desc: CYP3A4 (Homo sapiens, UniProt P08684)
# Sequence (P08684 whole entry): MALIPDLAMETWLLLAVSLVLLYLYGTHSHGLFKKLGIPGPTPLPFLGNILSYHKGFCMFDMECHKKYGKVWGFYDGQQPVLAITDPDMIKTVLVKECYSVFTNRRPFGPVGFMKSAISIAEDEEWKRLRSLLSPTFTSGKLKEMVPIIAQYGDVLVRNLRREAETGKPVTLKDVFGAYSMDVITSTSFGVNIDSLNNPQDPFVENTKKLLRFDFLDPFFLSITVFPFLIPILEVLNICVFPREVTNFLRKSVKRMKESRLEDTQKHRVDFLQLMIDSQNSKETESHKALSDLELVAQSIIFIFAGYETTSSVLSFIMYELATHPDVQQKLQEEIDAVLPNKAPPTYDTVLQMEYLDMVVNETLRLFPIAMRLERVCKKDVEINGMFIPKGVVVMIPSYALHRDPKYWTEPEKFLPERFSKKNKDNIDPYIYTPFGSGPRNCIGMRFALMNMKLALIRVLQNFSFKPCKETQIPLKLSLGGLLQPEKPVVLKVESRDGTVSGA
# method-summary: Inhibition of CYP3A4 in human liver microsome using testosterone as substrate preincubated with compound for 10 minutes followed NADPH addition and measured after 15 mins by LC-MS/MS analysis
# Type: ADME, microsomes
# recorded-conditions: human, human liver microsomes, probe testosterone
recorded-metric: IC50 at 15 min

> print(dat)
                           molecular.string                            target.desc  recorded.value
1  N#Cc1ccc(Nc2ncc(CO)c(Oc3c(F)cc(-c4ccc(C#N)cc4)cc3F)n2)cc1  CYP3A4 (Homo sapiens, UniProt P08684)         > 25 µM

====

# target-desc: Cytochrome P450 2D6 (Homo sapiens)
# Sequence (P10635 whole entry): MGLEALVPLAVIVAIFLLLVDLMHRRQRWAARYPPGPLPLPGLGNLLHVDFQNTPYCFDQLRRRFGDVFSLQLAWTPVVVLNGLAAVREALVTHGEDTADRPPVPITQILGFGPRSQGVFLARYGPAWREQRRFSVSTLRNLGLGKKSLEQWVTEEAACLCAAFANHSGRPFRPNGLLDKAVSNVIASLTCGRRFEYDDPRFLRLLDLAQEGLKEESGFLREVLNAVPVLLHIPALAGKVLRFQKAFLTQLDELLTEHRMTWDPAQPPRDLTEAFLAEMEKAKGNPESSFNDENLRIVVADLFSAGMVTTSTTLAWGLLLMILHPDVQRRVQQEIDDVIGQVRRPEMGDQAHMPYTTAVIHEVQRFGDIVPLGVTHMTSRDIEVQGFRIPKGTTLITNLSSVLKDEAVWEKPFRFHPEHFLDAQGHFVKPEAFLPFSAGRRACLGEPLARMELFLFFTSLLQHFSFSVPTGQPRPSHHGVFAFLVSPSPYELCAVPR
pIC50: −log10 of the molar value.
recorded-metric: pIC50

> print(dat)
                           molecular.string  recorded.metric  recorded.value
1  Cc1cc(-c2ccc(C#N)cc2)cc(C)c1Oc1nc(NC2CCN(Cc3ccc(S(N)(=O)=O)cc3)CC2)ncc1CO            pIC50            4.30

====

Reported log10(EC50) values for the following molecules.
# System: Human immunodeficiency virus 1
# method-summary: Antiviral activity against HIV-1 harboring Y188L mutant infected in human MT4 cells assessed as protection against virus-induced cytopathic effect incubated for 5 days by MTT assay
# Format: functional, organism-based
# recorded-conditions: Human immunodeficiency virus 1, MT4, 120 h
recorded-metric: log10(EC50) (log10 of the value in nM)

> print(dat)
                            molecular.string  recorded.value
 1  Cc1cc(-c2ccncc2)cc(C)c1Oc1nc(NC2CCN(Cc3cccc(C(N)=O)c3)CC2)ncc1CO            2.00
 2  COCCNS(=O)(=O)c1ccc(CN2CCC(Nc3ncc(CO)c(Oc4c(C)cc(-c5ccc(C#N)cc5)cc4C)n3)CC2)cc1            1.67
 3  CNC(=O)c1cccc(CN2CCC(Nc3ncc(CO)c(Oc4c(C)cc(-c5ccc(C#N)cc5)cc4C)n3)CC2)c1            2.91
 4  Cc1cc(-c2ccc(C#N)cc2)cc(C)c1Oc1nc(NC2CCN(Cc3ccc(S(=O)(=O)NCCCO)cc3)CC2)ncc1CO            2.38
 5  COCCNC(=O)c1ccc(CN2CCC(Nc3ncc(CO)c(Oc4c(C)cc(-c5ccncc5)cc4C)n3)CC2)cc1            1.66
 6  Cc1ccc(CN2CCC(Nc3ncc(CO)c(Oc4c(C)cc(-c5ccc(C#N)cc5)cc4C)n3)CC2)cc1            2.37
 7  Cc1cc(-c2ccc(C#N)cc2)cc(C)c1Oc1nc(NC2CCN(Cc3ccc(S(=O)(=O)NCCO)cc3)CC2)ncc1CO            2.36
 8  Cc1cc(-c2ccc(C#N)cc2)cc(C)c1Oc1nc(NC2CCN(Cc3ccc(C(F)(F)F)cc3)CC2)ncc1CO            2.85
 9  N#Cc1ccc(Nc2ncc(CO)c(Oc3c(F)cc(-c4ccc(C#N)cc4)cc3F)n2)cc1            2.21
10  Cc1cc(-c2ccc(C#N)cc2)cc(C)c1Oc1nc(NC2CCN(Cc3ccc(CO)cc3)CC2)ncc1CO            1.75
11  Cc1cc(-c2ccncc2)cc(C)c1Oc1nc(NC2CCN(Cc3ccc(S(=O)(=O)N4CCC(O)CC4)cc3)CC2)ncc1CO            2.35
12  Cc1cc(-c2ccc(C#N)cc2)cc(C)c1Oc1nc(NC2CCN(Cc3ccc(C(N)=O)cc3)CC2)ncc1CO            2.19
13  Cc1cc(-c2ccc(C#N)cc2)cc(C)c1Oc1nc(NC2CCN(Cc3cccc(C#N)c3)CC2)ncc1CO            1.71
14  Cc1cc(-c2ccc(C#N)cc2)cc(C)c1Oc1nc(NC2CCN(Cc3ccc(F)cc3)CC2)ncc1CO            2.45
15  CNS(=O)(=O)c1ccc(CN2CCC(Nc3ncc(CO)c(Oc4c(C)cc(-c5ccncc5)cc4C)n3)CC2)cc1            2.00
16  Cc1cc(-c2ccc(C#N)cc2)cc(C)c1Oc1nc(NC2CCN(Cc3ccc([N+](=O)[O-])cc3)CC2)ncc1CO            2.28
